- System: S. pneumoniae D39V;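 note: OD595 on entry to stationary phase over no-drug wells; at most 1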
- PROTOCOL_DETAILS: fitness (endpoint OD595 vs no drug) (fraction); higher = more growth
- STUDY_CONDITIONS: first compound 1 µg/mL; partner 4 µg/mL
Label label 0 if fitness falls below 0.8; label label 1 in every other case.

For this compound, is measured fitness 0.8 or higher? O=C(O)[C@H]1/C(=C/CO)O[C@@H]2CC(=O)N21 [Clavulanic acid] + COc1ccc(C[C@H](N)C(=O)N[C@H]2[C@@H](O)[C@H](n3cnc4c(N(C)C)ncnc43)O[C@@H]2CO)cc1 [Puromycin] label 0

For this compound, is measured fitness 0.8 or higher? O=C(O)[C@H]1/C(=C/CO)O[C@@H]2CC(=O)N21 [Clavulanic acid] + Cc1cc(NS(=O)(=O)c2ccc(N)cc2)no1 [Sulfamethoxazol] label 1

For this compound, is measured fitness 0.8 or higher? O=C(O)[C@H]1/C(=C/CO)O[C@@H]2CC(=O)N21 [Clavulanic acid] + CC1=C(C(=O)O)N2C(=O)[C@@H](NC(=O)[C@H](N)c3ccccc3)[C@H]2SC1 [Cephalexin] label 0

For this compound, is measured fitness 0.8 or higher? O=C(O)[C@H]1/C(=C/CO)O[C@@H]2CC(=O)N21 [Clavulanic acid] + O=C1CN(/N=C/c2ccc([N+](=O)[O-])o2)C(=O)N1 [Nitrofurantoin] label 0

For this compound, is measured fitness 0.8 or higher? O=C(O)[C@H]1/C(=C/CO)O[C@@H]2CC(=O)N21 [Clavulanic acid] + CN[C@@H]1[C@H](O[C@H]2[C@H](O[C@H]3[C@H](O)[C@@H](O)[C@H](N=C(N)N)[C@@H](O)[C@@H]3N=C(N)N)O[C@@H](C)[C@]2(O)C=O)O[C@@H](CO)[C@H](O)[C@H]1O [Streptomycin] label 1

----------
- Tested on: S. aureus DSM 20231;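 note: first quartile when negative (synergy) and third quartile when positive (antagonism)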
- PROTOCOL_DETAILS: Bliss interaction score (quartile over a dose matrix) (fitness difference); higher = more antagonism (negative = synergy)
Assign Bliss interaction score to each entry below.
Please reply with the number alone, leaving off any unit.

API: value(readout= Bliss interaction score, system= S. aureus DSM 20231, query= CC[C@H]1OC(=O)[C@H](C)[C@@H](O[C@H]2C[C@@](C)(OC)[C@@H](O)[C@H](C)O2)[C@H](C)[C@@H](O[C@@H]2O[C@H](C)C[C@H](N(C)C)[C@H]2O)[C@](C)(O)C[C@@H](C)CN(C)[C@H](C)[C@@H](O)[C@]1(C)O [Azithromycin] + Cn1nnc(-c2ccc(-c3ccc(N4C[C@H](CO)OC4=O)cc3F)cn2)n1 [Tedizolid] ) -0.0615

API: value(readout= Bliss interaction score, system= S. aureus DSM 20231, query= CC1=C(C(=O)O)N2C(=O)[C@@H](NC(=O)[C@H](N)c3ccccc3)[C@H]2SC1 [Cephalexin] + CC[C@H]1OC(=O)[C@H](C)C(=O)[C@H](C)[C@@H](O[C@@H]2O[C@H](C)C[C@H](N(C)C)[C@H]2O)[C@](C)(OC)C[C@@H](C)C(=O)[C@H](C)[C@H]2N(CCCCn3cnc(-c4cccnc4)c3)C(=O)O[C@]12C [Telithromycin] ) 0.0639

API: value(readout= Bliss interaction score, system= S. aureus DSM 20231, query= O=C(O)[C@H]1/C(=C/CO)O[C@@H]2CC(=O)N21 [Clavulanic] + CCC[C@@H]1C[C@@H](C(=O)N[C@@H]([C@H]2O[C@H](SC)[C@H](O)[C@@H](O)[C@H]2O)[C@@H](C)O)N(C)C1 [Lincomycin] ) -0.194

API: value(readout= Bliss interaction score, system= S. aureus DSM 20231, query= CC[C@H]1OC(=O)[C@H](C)[C@@H](O[C@H]2C[C@@](C)(OC)[C@@H](O)[C@H](C)O2)[C@H](C)[C@@H](O[C@@H]2O[C@H](C)C[C@H](N(C)C)[C@H]2O)[C@](C)(O)C[C@@H](C)CN(C)[C@H](C)[C@@H](O)[C@]1(C)O [Azithromycin] + CC1=C(C(=O)O)N2C(=O)[C@@H](NC(=O)[C@H](N)c3ccccc3)[C@H]2SC1 [Cephalexin] ) -0.0843

API: value(readout= Bliss interaction score, system= S. aureus DSM 20231, query= CN(C)CCCN1c2ccccc2Sc2ccc(Cl)cc21 [Chlorpromazine] + CN[C@H](CC(C)C)C(=O)N[C@H]1C(=O)N[C@@H](CC(N)=O)C(=O)N[C@H]2C(=O)N[C@H]3C(=O)N[C@H](C(=O)N[C@H](C(=O)O)c4cc(O)cc(O)c4-c4cc3ccc4O)[C@H](O[C@H]3C[C@](C)(N)[C@@H](O)[C@H](C)O3)c3ccc(c(Cl)c3)Oc3cc2cc(c3O[C@@H]2O[C@H](CO)[C@@H](O)[C@H](O)[C@H]2O[C@H]2C[C@](C)(NCc3ccc(-c4ccc(Cl)cc4)cc3)[C@@H](O)[C@H](C)O2)Oc2ccc(cc2Cl)[C@H]1O [Oritavancin] ) -0.202

API: value(readout= Bliss interaction score, system= S. aureus DSM 20231, query= CC[C@H]1OC(=O)[C@H](C)C(=O)[C@H](C)[C@@H](O[C@@H]2O[C@H](C)C[C@H](N(C)C)[C@H]2O)[C@](C)(OC)C[C@@H](C)C(=O)[C@H](C)[C@H]2N(CCCCn3cnc(-c4cccnc4)c3)C(=O)O[C@]12C [Telithromycin] + CC1=C\[C@@H](O)CC(=O)Cc2nc(co2)C(=O)N2CCC=C2C(=O)O[C@H](C(C)C)[C@H](C)/C=C/C(=O)NC\C=C\1 [Virginiamycin M1] ) -0.0529
